Attribution: PubChem BioAssay (Tox21)

assay-protocol: qHTS assay to identify small molecule antagonists of the thyroid receptor (TR) signaling pathway - cell viability counter screen (AID 743064); further: nearly all actives have a fitted effect of over 50% in size
test-context: GH3.TRE-Luc viability, CellTiter-Fluor, 24 h; series mostly up to 70.3 µM
Inconclusive results are not listed. The source made the active and inactive calls. The call rests on the fitted dose curve; in most records, active means well fitted cell-killing curve with a large enough effect in the repeat runs; inconclusive means weak or mixed curves, or effect the other way; inactive means no such curve, though single readings can be large or run the other way.
Assign a class; possible classes are active, inactive

[[record]]
structure_smiles = "CCN(Cc1cccnc1)C(=O)c1cccc(Cl)c1[C@]1(C)C(=O)N(Cc2ccc(OC)cc2OC)c2ccc(Cl)cc21"
label_value = "active"

[[record]]
structure_smiles = "COc1cc(-c2nc(NC(=O)c3cc4cc(C)cc(C)c4n3CC(=O)O)sc2CCC2CCCCC2)c(OC)cc1Cl"
label_value = "active"

[[record]]
structure_smiles = "CC(C)CCCCCCCCCCCCCCC(=O)O"
label_value = "inactive"

[[record]]
structure_smiles = "Cn1cc(C(=O)[C@@H]2CCc3nc[nH]c3C2)c2ccccc21"
label_value = "inactive"


Consider now this further compound.
Identify the outcome logged in this assay for the compound shown: C/C=C(\C)C(=O)OCc1ccccc1 inactive

* * *

Tested on: thyroid hormone receptor (rat, GH3 cells)
assay-protocol: qHTS assay to identify small molecule agonists of the thyroid receptor (TR) signaling pathway (AID 743066)
test-context: GH3.TRE-Luc cells, TR agonist luciferase, 24 h; series mostly up to 83.9 µM
Results filed as inconclusive are left out. Activity calls are given as the source filed them. Calls come from the whole dose curve.
Outcome (select one): 1 = active, -1 = inactive

[[record]]
molecule = "O=C1c2c(O)ccc(Nc3ccc(CCO)cc3)c2C(=O)c2c([N+](=O)[O-])ccc(O)c21"
label_value = -1

[[record]]
molecule = "N=C1N=C(N)c2ccccc21"
label_value = -1

[[record]]
molecule = "CC(C)(C)CC(C)(C)c1ccc(O)c(Cc2ccc(Cl)cc2Cl)c1"
label_value = 1

[[record]]
molecule = "CC(C)(C)C(=O)OCOC(=O)C1N2C(=O)CC2S(=O)(=O)C1(C)C (configuration not stated)"
label_value = -1

[[record]]
molecule = "CCN(CCC#N)c1ccc(N=Nc2c(Cl)cc([N+](=O)[O-])cc2Cl)cc1"
label_value = -1

[[record]]
molecule = "NC(=O)NS(=O)(=O)c1ccc(N)cc1"
label_value = -1

[[record]]
molecule = "O=c1[nH]cnc2nc[nH]c12"
label_value = -1

[[record]]
molecule = "CCCCCCCC/C=C\\CCCCCCCCOCCO"
label_value = -1


Please indicate how the test categorized COc1cccc(N)c1 . -1

Next: CSc1ccc(/C=C2/C(C)=C(CC(=O)O)c3cc(F)ccc32)cc1 -1

Same question, O=[N+]([O-])c1cc(Cl)c(Cl)c(Cl)c1Cl this time -1

Also need Oc1ccc2cc(SSc3ccc4cc(O)ccc4c3)ccc2c1 , thanks. -1

* * *

target-or-system: Nuclear receptor subfamily 1 group I member 3 (Homo sapiens)
assay-protocol: qHTS assay to identify small molecule antagonists of the constitutive androstane receptor (CAR) signaling pathway (AID 1224838);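 further: HepG2 cells stably expressing hCAR with CYP2B6 luciferase reporter stimulated by CITCO; nearly all actives have a fitted effect of over 40% in size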
test-context: HepG2-CYP2B6-hCAR luciferase, CITCO-stimulated, 24 h; series mostly up to 92.4 µM
Results filed as inconclusive are left out. The source made the active and inactive calls. Calls come from the whole dose curve; as a rule, active = well fitted inhibition curve with a large enough effect in the repeat runs; inconclusive = weak or mixed curves, or effect the other way; inactive = no such curve, though single readings can be large or run the other way.
Give your call using only these classes: active, inactive

# count of solved cases: 2
[[record]]
molecule = "O=C(c1ccc(O)cc1O)c1ccc(O)cc1O"
label_value = "inactive"

[[record]]
molecule = "NNC(=O)c1cccc(C(=O)NN)c1"
label_value = "inactive"


What call does the record list for CSc1ccc(/C=C2/C(C)=C(CC(=O)O)c3cc(F)ccc32)cc1 ? inactive

Queued: CCC1OCC(COc2ccc(Oc3ccccc3)cc2)O1 (configuration not stated) inactive
